target system: bovine testes calmodulin (bovine, UniProt P62157 1-149)
experiment description: SPR
metric name: pKd
Just so you know, pKd here is -log10 of the concentration in molar units; reply with that number alone.

>>> assay_value("His-tagged ACA8 N-terminus S57D (6His-1M-I116) (domain or fragment) MTSLLKSSPGRRRGGDVESGKSEHADSDSDTFYIPSKNASIERLQQWRKAALVLNADRRFRYTLDLKKEQETREMRQKIRSHAHALLAANRFMDMGRESGVEKTTGPATPAGDFGI")
6.78
>>> assay_value("His-tagged ACA8 N-terminus S22D (6His-1M-I116) (domain or fragment) MTSLLKSSPGRRRGGDVESGKDEHADSDSDTFYIPSKNASIERLQQWRKAALVLNASRRFRYTLDLKKEQETREMRQKIRSHAHALLAANRFMDMGRESGVEKTTGPATPAGDFGI")
7.62

Let us move to another entry and its pKd.
query: Which pKd value is on record for His-tagged ACA8 N-terminus S27D (6His-1M-I116) (domain or fragment) MTSLLKSSPGRRRGGDVESGKSEHADDDSDTFYIPSKNASIERLQQWRKAALVLNASRRFRYTLDLKKEQETREMRQKIRSHAHALLAANRFMDMGRESGVEKTTGPATPAGDFGI ?
result: 7.58
